# measured-target: 3-hydroxyacyl-CoA dehydrogenase type-2 (Mus musculus)
# Sequence (O08756 whole entry): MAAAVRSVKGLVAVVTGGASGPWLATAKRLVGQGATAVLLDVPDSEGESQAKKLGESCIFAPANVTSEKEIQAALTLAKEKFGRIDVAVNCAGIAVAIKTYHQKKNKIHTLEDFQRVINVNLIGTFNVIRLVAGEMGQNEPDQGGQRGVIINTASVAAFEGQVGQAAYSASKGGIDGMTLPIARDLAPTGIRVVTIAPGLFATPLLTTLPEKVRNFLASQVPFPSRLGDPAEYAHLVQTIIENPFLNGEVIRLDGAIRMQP
# assay-info: Inhibition of recombinant mouse full-length 17beta-HSD10 (2 to 261 residues) assessed as reduction in transformation of [3H]-ALLOP to 5alpha-DHP after 48 hrs in presence of 1 mM NAD+ cofactor by liquid scintillation counting method
measurement-name: IC50 (µM)

> print(dat)
                                   molecule  measurement.name  reported
1  C[C@]12CC[C@@H]3c4ccc(O)cc4CC[C@H]3[C@@H]1CC[C@@H]2O              IC50       770
2  COc1cccc(CN2CCN(C[C@@]3(O)CC[C@@]4(C)[C@@H](CC[C@@H]5[C@@H]4CC[C@]4(C)[C@H](O)CC[C@@H]54)C3)CC2)c1              IC50       235
3  COc1cccc(CN2CCN(C[C@@]3(O)CC[C@@]4(C)[C@@H](CC[C@@H]5[C@@H]4CC[C@]4(C)C(=O)CC[C@@H]54)C3)CC2)c1              IC50       985

* * *

# measured-target: 3-hydroxyacyl-CoA dehydrogenase type-2 (Mus musculus) (UniProt O08756)
# Sequence (whole entry): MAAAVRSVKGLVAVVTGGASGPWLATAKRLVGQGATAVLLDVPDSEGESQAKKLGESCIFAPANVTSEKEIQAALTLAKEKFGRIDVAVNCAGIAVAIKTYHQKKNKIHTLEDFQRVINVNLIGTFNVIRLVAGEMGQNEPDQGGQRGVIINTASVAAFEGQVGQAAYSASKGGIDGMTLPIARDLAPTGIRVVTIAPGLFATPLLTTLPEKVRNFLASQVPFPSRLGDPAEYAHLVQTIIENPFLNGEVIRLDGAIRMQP
# assay-info: Inhibition of recombinant mouse full-length 17beta-HSD10 (2 to 261 residues) assessed as reduction in transformation of [14C]-E2 to E1 at 300 uM after 48 hrs in presence of 1 mM NAD+ cofactor by liquid scintillation counting method relative to control
Quick reference for inhibition among some compounds
measurement-name: inhibition (%)

> print(dat)
                                   molecule  reported
1  COc1cc(CN2CCN(C[C@@]3(O)CC[C@@]4(C)[C@@H](CC[C@@H]5[C@@H]4CC[C@]4(C)C(=O)CC[C@@H]54)C3)CC2)ccc1C        31
2  C[C@]12CC[C@](O)(CN3CCN(C(=S)NCc4cccc(C(F)(F)F)c4)CC3)C[C@@H]1CC[C@@H]1[C@@H]2CC[C@]2(C)C(=O)CC[C@@H]12       8.5
3  COc1cccc(CN2CCN(C[C@@]3(O)CC[C@@]4(C)[C@@H](CC[C@@H]5[C@@H]4CC[C@]4(C)[C@@H](O)CC[C@@H]54)C3)CC2)c1      13.7
4  COc1cccc(CN2CCN(C[C@@]3(O)CC[C@@]4(C)[C@@H](CC[C@@H]5[C@@H]4CC[C@]4(C)C(=O)C(C)(C)C[C@@H]54)C3)CC2)c1      24.6
5  CN(C)S(=O)(=O)c1ccc(NC(=S)N2CCN(C[C@@]3(O)CC[C@@]4(C)[C@@H](CC[C@@H]5[C@@H]4CC[C@]4(C)C(=O)CC[C@@H]54)C3)CC2)cc1       0.3
6  COc1cccc(CN2CCN(C[C@@]3(O)CC[C@@]4(C)[C@@H](CC[C@@H]5[C@@H]4CC[C@]4(C)C(=O)CC[C@@H]54)C3)CC2)c1        30
7  COc1cccc(CN2CCN(C[C@@]3(O)CC[C@@]4(C)[C@@H](CC[C@@H]5[C@@H]4CC[C@@]4(C)[C@H]5CCC4(F)F)C3)CC2)c1      13.3
8  COc1cccc(CN2CCN(C[C@@]3(O)CC[C@@]4(C)[C@@H](CC[C@@H]5[C@@H]4CC[C@]4(C)[C@H](O)CC[C@@H]54)C3)CC2)c1      31.7
